# Clotting Time per entry
- System: rats
- ASSAY: Clotting time in rats, different date, time intervals and doses (Table 24)
- Format: in vivo, rat
- CONDITION_SET: 10 mg/kg 1 hr
- Excerpt: The following additional data were obtained, when the same drugs were compared in rats on a different date with different time intervals and doses: […]
Note: state the figure and append the unit.

* CC(=O)Oc1ccccc1C(=O)O [acetylsalicylic acid, reference compound] | 9.8 min

Q: Given CC(=O)Oc1ccccc1C(=O)OC1CN[C@H](C(=O)O)C1 (stereo partly shown) , state its recorded Clotting Time.
Ans: 7.5 min

Q: "CC(=O)Oc1ccccc1C(=O)O[C@H](C)[C@H](N)C(=O)O" , same question.
Ans: 7.4 min

Q: "CC(=O)Oc1ccccc1C(=O)OC[C@H](N)C(=O)O" , same question.
Ans: 6.9 min

* * *

# Mean Clotting Time (±S.D.), Intermediate Dose per entry
- Tested on: albino rats
- ASSAY: Blood clotting time in albino rats, one hour after dosing
- Assay type: in vivo, rat
- CONDITION_SET: 4.0 mg/kg as aspirin, one hour after dosing
Give the value, in units of min, as a plain number.

Below, each entry is followed by its recorded Mean Clotting Time (±S.D.), Intermediate Dose result.
• CC(=O)Oc1ccccc1C(=O)O[C@H](C)[C@H](N)C(=O)O = 5.6
• CC(=O)Oc1ccccc1C(=O)OC[C@H](N)C(=O)O = 6.8
• CC(=O)Oc1ccccc1C(=O)OC1CN[C@H](C(=O)O)C1 (stereo partly shown) = 5.7

Q: // map CC(=O)Oc1ccccc1C(=O)O [acetylsalicylic acid, reference compound] to recorded Mean Clotting Time (±S.D.), Intermediate Dose (system: albino rats)
Ans: 8.1

* * *

- Tested on: rats
- ASSAY: Hypolipidemic property, blood triglycerides in rats on high sugar diet
- Type: in vivo, rat
- CONDITION_SET: Dose 25 mg/kg
MEASUREMENT_NAME: % Change from day 7 (%)
Give the value, in units of %, as a plain number.

Q: Given CC(C)OC(=O)C(C)(C)Oc1ccc(C(=O)c2ccc(Cl)cc2)cc1 [Fenofibrate, reference compound] , state its recorded % Change from day 7.
Ans: −45.86

Q: "C[C@@H](OC(=O)C(C)(C)Oc1ccc(C(=O)c2ccc(Cl)cc2)cc1)[C@H](N)C(=O)O.Cl" , same question.
Ans: −37.68

Q: CC(C)(Oc1ccc(C(=O)c2ccc(Cl)cc2)cc1)C(=O)OC1CN[C@H](C(=O)O)C1.Cl (stereo partly shown) , same question.
Ans: −59.45

Q: "CC(C)(Oc1ccc(C(=O)c2ccc(Cl)cc2)cc1)C(=O)OC[C@H](N)C(=O)O.Cl" , same question.
Ans: −72.82

* * *

- Test system: rats
- ASSAY: Hypolipidemic property, blood triglycerides in rats on high sugar diet
- Assay type: in vivo, rat
- CONDITION_SET: Dose 25 mg/kg
MEASUREMENT_NAME: Absolute Change from day 0

Below, each entry is followed by its recorded Absolute Change from day 0 result.
• CC(C)OC(=O)C(C)(C)Oc1ccc(C(=O)c2ccc(Cl)cc2)cc1 [Fenofibrate, reference compound] = −10.8
• CC(C)(Oc1ccc(C(=O)c2ccc(Cl)cc2)cc1)C(=O)OC[C@H](N)C(=O)O.Cl [L-Serine Ester of Fenofibric Acid] = −54
• C[C@@H](OC(=O)C(C)(C)Oc1ccc(C(=O)c2ccc(Cl)cc2)cc1)[C@H](N)C(=O)O.Cl [Fen-T Ester] = −18.2

Okay, now this molecule:
Q: Given CC(C)(Oc1ccc(C(=O)c2ccc(Cl)cc2)cc1)C(=O)OC1CN[C@H](C(=O)O)C1.Cl (stereo partly shown) [Fen-HP Ester] , state its recorded Absolute Change from day 0.
Ans: −16
